For each of the compounds below, state its cell viability.
# Test system: OCI-AML2
# Assay Procedure: cell viability relative to vehicle control; higher = less cytotoxic;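 also: after 48 h exposure read by CellTiter-Glo luminescence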
# Conditions: 10 µM; SRSF2 genotype: wt/wt
Numbers only, in %.

Would you please look over these solved cases?
| Compound | Reported Value |
| --- | --- |
| O=C(Nc1ccc(Br)cc1)c1c(O)cccc1O | 14.2 |
| O=C(Nc1ccc(Br)cc1)c1ccc(Br)c(S(=O)(=O)NCc2ccccc2)c1 | 76 |
| CCC(C)SSc1ncc[nH]1 (stereo not drawn) | 3.63 |

For each of the compounds below, state cell viability.
1. COc1cc2oc(-c3ccc(O)cc3)cc(=O)c2c(O)c1[C@@H]1O[C@H](CO)[C@@H](O)[C@H](O)[C@H]1O[C@@H]1O[C@H](CO)[C@@H](O)[C@H](O)[C@H]1O
2. CN(C)/N=N/c1[nH]cnc1C(N)=O
3. NNC(=O)c1ccncc1
4. CNc1ccc([N+](=O)[O-])c(Nc2ccc3[nH]ncc3c2)n1
5. O=C1CCC[C@@H]2[C@H]3CCC[N+]4([O-])CCC[C@@H](CN12)[C@@H]34 (stereo partly drawn) [Oxymatrine (Matrine N-oxide)]
6. O=C1C(=O)c2ccccc2C(O)=C1C1CCC(c2ccc(Cl)cc2)CC1 (stereo not drawn)
7. O=C(Nc1nc2cccc(-c3ccc(CN4CCS(=O)(=O)CC4)cc3)n2n1)C1CC1
8. C[C@H]1C[C@H]2[C@@H]3CCC4=CC(=O)C=C[C@]4(C)[C@H]3C(=O)C[C@]2(C)[C@@]1(O)C(=O)CO

Reply:
1: 100; 2: 112; 3: 115; 4: 26.6; 5: 96.5; 6: 90.1; 7: 41.7; 8: 104

For each of the compounds below, state cell viability.
1. CC(C)Cc1ccc(C(C)C(=O)O)cc1 (stereo not drawn)
2. CC(C)Oc1ccc(-c2nc(-c3cccc4c3CC[C@@H]4NCCO)no2)cc1C#N [Ozanimod (RPC1063)]
3. COC(=O)c1ccc2c(c1)nc(NC(=O)c1ccccc1)n2CCCc1ccccc1

Reply:
[101, 34.4, 68.7]

----------
# System: MARIMO
# Assay Procedure: cell viability relative to vehicle control; higher = less cytotoxic
# Conditions: 10 µM; SRSF2 genotype: SRSF2 P95H/wt
Structures can show the parent of a compound that is named as a salt.
Experimental Endpoint: cell viability
# do not omit the unit; it follows the number

Would you please look over these solved cases?
| Molecule | Target Entity | cell viability |
| --- | --- | --- |
| O=C(Cc1ccccc1)Nc1nnc(CCSCCc2nnc(NC(=O)Cc3ccccc3)s2)s1 | MARIMO | 75.9% |
| CCC(=O)O[C@H]1[C@H](O[C@@H]2[C@@H](C)[C@H](O[C@H]3C[C@@](C)(OC)[C@@H](O)[C@H](C)O3)[C@@H](C)C(=O)O[C@H](CC)[C@@](C)(O)[C@H](O)[C@@H](C)C(=O)[C@H](C)C[C@@]2(C)O)O[C@H](C)C[C@@H]1N(C)C [Erythromycin estolate] | MARIMO | 92.3% |
| CC/C=C(\C(=O)N[C@@H]1C(=O)N2C(C(=O)OCOC(=O)C(C)(C)C)=C(COC(N)=O)CS[C@H]12)c1csc(N)n1 [Cefcapene Pivoxil Hydrochloride] | MARIMO | 93.2% |
| CC1=C(/C=C/C(C)=C/C=C/C(C)=C/C=C/C=C(C)/C=C/C=C(C)/C=C/C2=C(C)C(=O)[C@@H](O)CC2(C)C)C(C)(C)C[C@H](O)C1=O | MARIMO | 98.3% |

# next molecule below
Task item: System MARIMO. Read-out cell viability. Item CC(C)C[C@@H]1NC(=O)[C@@H](C(C)C)NC(=O)[C@@H]2CCCN2C(=O)[C@@H](CC(=O)O)NC(=O)[C@@H](Cc2c[nH]c3ccccc23)NC1=O . Report value.
Reply: 101%
